molecular target: F508delCFTR (Homo sapiens, UniProt P13569, DEL508-508); construct: expressed in transfected cells; host or cells: CFBE41o- human lung-derived epithelial cells (CFBE4lo-F508delCFTR-HRP), doxycycline-inducible; assay: Cell Surface Expression-Horse Radish Peroxidase (CSE-HRP) Assay; assay type: cell-based; conditions: with co-corrector (2 μM of 3-[(2R,4R)-4-({[1-(2,2-difluoro-1,3-benzodioxol-5-yl)cyclopropyl]carbonyl}amino)-7-methoxy-3,4-dihydro-2H-chromen-2-yl]benzoic acid); read-out: EC50 (with co-corrector)
Sequence (P13569 with tags, fused parts or gaps DEL508-508): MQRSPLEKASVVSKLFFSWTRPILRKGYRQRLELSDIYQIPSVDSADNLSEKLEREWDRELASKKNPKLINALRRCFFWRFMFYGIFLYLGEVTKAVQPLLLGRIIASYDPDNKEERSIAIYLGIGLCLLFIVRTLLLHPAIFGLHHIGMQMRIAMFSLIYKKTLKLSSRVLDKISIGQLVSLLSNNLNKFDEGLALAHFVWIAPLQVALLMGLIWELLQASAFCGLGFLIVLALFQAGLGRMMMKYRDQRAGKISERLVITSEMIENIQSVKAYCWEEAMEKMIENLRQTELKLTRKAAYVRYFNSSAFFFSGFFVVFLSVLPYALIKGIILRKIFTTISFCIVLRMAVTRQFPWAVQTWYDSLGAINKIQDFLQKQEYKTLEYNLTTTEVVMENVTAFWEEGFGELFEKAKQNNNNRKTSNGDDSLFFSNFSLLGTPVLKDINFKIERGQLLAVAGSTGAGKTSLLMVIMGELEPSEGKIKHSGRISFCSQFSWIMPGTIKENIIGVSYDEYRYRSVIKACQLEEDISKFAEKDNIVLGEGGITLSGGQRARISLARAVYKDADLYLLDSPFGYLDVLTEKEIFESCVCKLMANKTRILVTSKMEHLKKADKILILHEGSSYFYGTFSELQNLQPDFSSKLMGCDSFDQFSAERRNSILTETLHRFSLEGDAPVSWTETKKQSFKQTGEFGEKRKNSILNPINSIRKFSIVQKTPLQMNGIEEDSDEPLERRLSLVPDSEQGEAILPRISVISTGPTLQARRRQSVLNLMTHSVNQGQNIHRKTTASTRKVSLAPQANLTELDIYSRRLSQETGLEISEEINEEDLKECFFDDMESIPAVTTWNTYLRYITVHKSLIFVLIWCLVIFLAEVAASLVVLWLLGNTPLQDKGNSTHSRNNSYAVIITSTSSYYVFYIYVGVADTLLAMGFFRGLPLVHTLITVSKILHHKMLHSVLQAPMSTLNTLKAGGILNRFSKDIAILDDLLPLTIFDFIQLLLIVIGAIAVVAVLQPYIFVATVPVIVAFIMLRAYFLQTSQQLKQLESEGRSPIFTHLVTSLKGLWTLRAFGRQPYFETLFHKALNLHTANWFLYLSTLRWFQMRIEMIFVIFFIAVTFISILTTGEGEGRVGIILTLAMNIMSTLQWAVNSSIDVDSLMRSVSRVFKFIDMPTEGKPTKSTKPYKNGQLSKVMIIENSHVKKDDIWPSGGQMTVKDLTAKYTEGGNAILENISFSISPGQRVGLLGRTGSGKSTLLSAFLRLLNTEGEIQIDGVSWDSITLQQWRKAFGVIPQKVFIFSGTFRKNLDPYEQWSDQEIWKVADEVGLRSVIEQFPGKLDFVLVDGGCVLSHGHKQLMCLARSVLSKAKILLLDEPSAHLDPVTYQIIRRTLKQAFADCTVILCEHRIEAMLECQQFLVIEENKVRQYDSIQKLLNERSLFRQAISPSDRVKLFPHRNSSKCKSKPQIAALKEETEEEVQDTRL
PARAMETER MEASURED: EC50

Example entries begin here.
>  <COMPOUND>
COc1ncc(Cl)cc1CN[C@@H]1[C@@H](C(C)(C)C)[C@H](C(=O)O)N(C(=O)C2CCCCC2)[C@@H]1c1ccccc1 (racemic) [Example I-36]

>  <PARAMETER MEASURED>
EC50

>  <RECORDED RESULT>
1000 to 10000 nM

$$$$
>  <COMPOUND>
COc1ccc(C2(C)CCC2)cc1CN[C@H]1[C@H](C(C)(C)C)[C@@H](C(=O)O)N(C(=O)[C@H]2CCCCO2)[C@H]1c1cccnc1OC [III-234]

>  <PARAMETER MEASURED>
EC50

>  <RECORDED RESULT>
1000 to 10000 nM

$$$$
>  <COMPOUND>
COc1ccc(C(C)(C)C)cc1CN[C@H]1[C@H](C(C)(C)C)[C@@H](C(=O)O)N(C(=O)c2cccnc2)[C@H]1c1ccccc1 [Example I-64]

>  <PARAMETER MEASURED>
EC50

>  <RECORDED RESULT>
1000 to 10000 nM

$$$$
>  <COMPOUND>
COc1ccc(C(C)(C)C)cc1CN[C@H]1[C@H](C(C)(C)C)[C@@H](C(=O)O)N(C(=O)[C@@H](Cc2ccccc2)OC)[C@H]1c1ccccc1 [Example 32]

>  <PARAMETER MEASURED>
EC50

>  <RECORDED RESULT>
< 1000 nM

$$$$
>  <COMPOUND>
COc1ccc(C(C)(C)C)cc1CN[C@H]1[C@H](C(C)(C)C)[C@@H](C(=O)O)N(C(=O)[C@@H]2CCC[C@@H](OC(F)(F)F)C2)[C@H]1c1cccnc1OC [II-540]

>  <PARAMETER MEASURED>
EC50

>  <RECORDED RESULT>
< 1000 nM

$$$$

What EC50 value was documented for this compound, COCCn1cc(C(F)(F)F)cc(CN[C@H]2[C@H](C(C)(C)C)[C@@H](C(=O)O)N(C(=O)C3CCCCC3)[C@H]2c2ccccc2)c1=O (racemic) [III-65] ?
1000 to 10000 nM
